# Measurement Protocol: yeast display, Sf9 membrane polyspecificity reagent, FACS + sequencing; frameworks hold sequencing errors
Observation Type: polyreactivity (PSR sort gate)

1) QVQLVESGGGLVQAGGSLRLSCAASGFTFDYYAMGWYRQAPGKERELVAAITSDGSTYYADSVKGRFTISRDNAKNTVYLQMNSLKPEDTAVYYCAADGISLYATAYDYWGQGTQVTVSS :: low polyreactivity
2) QDQLVESGGGLVQAGGSLRLSCAASGSTFSFYAMGWTRQAPGKERELVAAISRSGGSTFYADSVKGRFTISRDNAKNTVYLQMNSLKPEDSAVYYCAAYGGLQSRYYYWGQGTQVTVSS :: high polyreactivity
3) QVQLVESGGGLVQAGGSLRLSCAASGFIFRYYALGWYRQAPGKERELVAAIDYSGGSTNYADSVKGRFTISRDNAKNTVYLQMNSLKPEDTGVYYCATVSDNRYYYWGQGTQVTVSS :: low polyreactivity
4) QVQLVESGGGLVQAGGSLRLSCAASGRTFGTYAMGWYIQAPGKERELVAAIRSNAGSTYYADSVKGRFTISRDNAKNTVYLQMNSLKPEDNAVYYCAKSYRCSRRYNYWGQGTQVTVSS :: high polyreactivity

Exercise: Supply polyreactivity (PSR sort gate) value. Item: "QVQLEDSGGGLVQAGARLRLSCAASGSTFAQNAMGRYRQAPGKERELVAAITYSGGSTYYADSVKGRFSISRDNAKNTVYLQMNSLKPEDTAVYYCAADVWWSYYRYDYWGQATQVTVSS"
Solution: low polyreactivity
